FYI, the data here is from ChEMBL document CHEMBL5537187.

- experimental.protocol: in vitro
- settings: human, HepG2 cells
- Description: Cytotoxicity against human HepG2 cells assessed as reduction in cell viability
Some compounds, each annotated with its measured IC50.
Answer with a number only, understood to be in µM.

Here is how some compounds turned out for IC50.
compound: Cc1nc2ccc(NC(=O)c3cc([N+](=O)[O-])cc([N+](=O)[O-])c3Cl)cc2s1
measured.parameter: IC50
observed: 86.1

compound: COc1ncnc(Cn2cc(C(=O)NCCO)c3ncc(C)cc32)c1C [TBA-7371]
measured.parameter: IC50
observed: 165

compound: CCOc1ccc(CC(=O)Nc2cc(C)nn2-c2nc3c(c(=O)[nH]2)CCC3)cc1
measured.parameter: IC50
observed: 116

compound: Cc1cc(NC(=O)c2ccc(C)c(C)c2)n(-c2nc(C)c(C)c(=O)[nH]2)n1
measured.parameter: IC50
observed: 38.7

Would you kindly look at the next entry?
Could you share which IC50 value was measured for "Cc1cc(NC(=O)c2ccc3ccccc3c2)n(-c2nc3c(c(=O)[nH]2)CCC3)n1" ?
144
